Data provenance is PubChem BioAssay AID624304.

test: gst-4 reporter inhibition in live C. elegans – whole organism, uHTS, GFP/RFP fluorescence ratio, strain VP596, SKN-1 inhibitor project, primary screen (AID 624304); settings: C. elegans VP596 Pgst-4::GFP/RFP ratio, acrylamide-induced, 24 h; at 21.8 µM; hits give high values
Out of some 360,000 compounds screened, about 1,800 (0.5%) were called active. The list comes from a sample in which actives are over-represented; it also holds close analogues and randomly drawn compounds.
MEASUREMENT_NAME: inhibition

Entry COC(=O)CNC(c1ccccc1Cl)c1cc(Br)ccc1NC(=O)CCN1CCOCC1 (configuration not stated) ; inhibition = 35.2% (active)

// inhibition value for CN1CCN(C(=O)c2ccc(NC(=O)c3ccc(Br)o3)cc2)CC1 : -9.6% (inactive)

Sure, the documented inhibition for O=C(Oc1ccc(-c2nc(-c3ccccn3)no2)cc1)c1ccccc1 is 26.9% (inactive)

Summary for this compound, CCCCC(CC)C(=O)Nc1ccc(Cl)cn1 (configuration not stated) : inhibition is -11.4% (inactive)

Record Brc1ccc(-c2noc(-c3ccccc3)n2)o1 . Reported inhibition: 53.9% (active)

For this compound ( Brc1ccc(-c2nnc(-c3ccccc3)o2)o1 ), measured inhibition is 47.1% (active)

So, Cc1cc(NC(=O)CSc2ncc(C(F)(F)F)cc2Cl)no1 ? Its inhibition was -6.53% (inactive)

The recorded inhibition for entry CCN(CC)S(=O)(=O)c1ccc(N(C)Cc2cccc(OC)c2OC)nc1 equals 13.3% (inactive)

Entry CCc1nc2c(OCc3ccc(C(=O)OC)cc3)cccn2c1N(C)C(=O)C(C)C — recorded inhibition = 7.01% (inactive)

# inhibition (compound: Cc1ccc(-c2ccnc3nc(Sc4ncc(C(F)(F)F)cc4Cl)nn23)cc1 ) is 41.4% (active)

For this compound ( Cc1c(C(=O)NCCN2CCOCC2)sc2nc(-c3ccc(F)cc3)cn12 ), measured inhibition is 5.89% (inactive)

Short answer for CC1(C(=O)NS(=O)(=O)c2cccc(F)c2)CCN1C(=O)Cc1ccc(Cl)cc1Cl (configuration not stated) : inhibition was 15.6% (inactive)

The compound listed as CCOC(=O)/C=C/c1ccc(C(F)(F)F)cc1S(=O)(=O)NC(C)(C)C has a reported inhibition of 3.66% (inactive)

Memo: CC(C)Nc1ccc(-n2nc3ccccc3[n+]2[O-])cc1 , reported inhibition: 8.98% (inactive)

Just so you know, measured inhibition for C=CCC1(C#N)C(=S)NC(C)=C(C(=O)OCC)C1c1ccccc1 (configuration not stated) came out at 20.2% (inactive)

Lab note: measured inhibition of Cc1ccc(-c2nc3c(Cl)cc(C(F)(F)F)cn3c2Cc2cccc(Cl)c2)cc1 was 9.6% (inactive)

Given item CCOC(=O)/C=C/CN(C(=O)OC(C)(C)C)S(=O)(=O)N1CC=CC1 , the value recorded as its inhibition is 35.2% (active)

So for Cc1cccc(NS(=O)(=O)c2ccc(C(=O)NCC(C)(C)N3CCOCC3)cc2)c1C , the logged inhibition turned out to be -5.62% (inactive)

# inhibition (compound: CCCNC(=O)C1CC(=O)N(c2ccc(OCc3ccccc3)cc2)C1 (configuration not stated) ) is 5.65% (inactive)

Entry O=C(Nc1ccc(-c2nnc(-c3ccccc3)o2)cc1)c1ccc(Br)o1 , inhibition reported as 34.6% (active)

inhibition recorded for this compound, CCC(C)(C)c1ccc(OCC(=O)N(C)C)c(C(C)(C)CC)c1 , is 2.98% (inactive)

Entry O=C(C1CCCO1)N1CCN(C(=S)NC2CC2)CC1 (configuration not stated) , inhibition reported as -7.31% (inactive)
